Reference for the values: PubChem BioAssay (EPA / NIEHS)

assay: CCTE_Harrill_HTTr_Apoptosis_MCF7: CCTE's 6-hour Apoptosis Assessment for the High-Throughput Transcriptomics (HTTr) Platform, in MCF-7 cells cultured in DMEM + 10% fetal bovine serum, Harrill Lab (AID 2284011)
Activity calls are given as the source filed them. Rule for the calls: active = hit-call score of the fitted dose curve at least 0.9, where 1 is the maximum; inactive = score below 0.9.
measured endpoint: outcome

Worked cases, answers included:
# molecule, outcome
records = [
    ("c1ccc(OP(Oc2ccccc2)Oc2ccccc2)cc1", "inactive"),
    ("CC(O)C#N (stereo unspecified)", "inactive"),
    ("CCOP(=S)(OCC)SCSc1ccc(Cl)cc1", "inactive"),
    ("CC(C)(C)N(NC(=O)c1ccc(Cl)cc1)C(=O)c1ccccc1", "inactive"),
    ("Nc1ccc2ccccc2c1", "inactive"),
]

Fill in reported outcome for this entry: ClC1=C(Cl)C2(Cl)C3C(Cl)C(Cl)CC3C1(Cl)C2(Cl)Cl (stereo unspecified)
inactive

Fill in reported outcome for this entry: Nc1ccc([N+](=O)[O-])cc1Cl
inactive
